System: Friend leukemia cell line
ASSAY PROTOCOL: The degree of erythroid maturation was measured by assessing the proportion of benzidine-positive cells at a concentration of 2 mM
Type: functional, Mus musculus
Consider the cut-off 70%. If the recorded Benzidine positive cells is strictly smaller, the label is true (1); if not, the label is false (0).

Consider the following illustrative entries.
1) CN1CCCN(C)C1=O    false (0)
2) O=C1NCCCCN1    true (1)

Please check: Benzidine positive cells for `SC1=NCCCN1` , strictly under 70% or not?
true (1)

Please check: Benzidine positive cells for `CN1CCCNC1=O` , strictly under 70% or not?
true (1)

Please check: Benzidine positive cells for `CN(C)C(=S)N(C)C` , strictly under 70% or not?
false (0)

Please check: Benzidine positive cells for `SC1=NCCCCN1` , strictly under 70% or not?
true (1)

Please check: Benzidine positive cells for `CN1CCN(C)C1=S` , strictly under 70% or not?
true (1)

Please check: Benzidine positive cells for `CN1CCCN=C1S` , strictly under 70% or not?
true (1)
